The values you see were collected from patent US8946430B2.

- TARGET: endothelial lipase (EL) (Homo sapiens)
- Construct: transformed by RAGE technology (Athersys) to overexpress endogenous EL; endogenous in cells; conditioned medium used as the enzyme source
- RUN_DESCRIPTION: Endothelial lipase (EL) enzymatic assay with fluorescent substrate A10070 in DMPG vesicles
- STATED_CONDITIONS: conditioned media from HT-1080 cells overexpressing endogenous EL; 20 min preincubation at 37° C.; FRET substrate A10070; read-out: HLE_EL_CRC IC50
ENDPOINT_NAME: pIC50
// scale note: pIC50 = -log10(conc_M); give the bare number

INSERT INTO assay_data (molecule, endpoint_name, meas_value) VALUES
  ('Cn1c(=O)c(O)c(C(=O)NCCCc2ccc(Cl)c(Cl)c2)c2cc(Cl)ccc21 [Example 3]', 'pIC50', 8.00);

Per the records, this molecule ( O=C(NCCCc1ccc(Cl)c(Cl)c1)c1c(O)c(=O)[nH]c2ccccc12 [Example 5] ) has pIC50 equal to 7.96

Per the records, this molecule ( Cn1c(=O)c(O)c(C(=O)NCCCN2CCCC2=O)c2ccccc21 [Example 103] ) has pIC50 equal to 5.03

Per the records, this molecule ( Cn1c(=O)c(O)c(C(=O)NCc2cccc(-n3cccc3)c2)c2ccccc21 [Example 172] ) has pIC50 equal to 8.00

Per the records, this molecule ( Cn1c(=O)c(O)c(C(=O)NCCc2ccc(-c3ccc(F)cc3)cc2)c2ccccc21 [Example 151] ) has pIC50 equal to 7.12

Per the records, this molecule ( Cn1c(=O)c(O)c(C(=O)NCCCc2ccc(Cl)c(Cl)c2)c2ccccc21 [Example 1] ) has pIC50 equal to 8.00

Per the records, this molecule ( Cn1c(=O)c(O)c(C(=O)NCCc2ccc(C(F)(F)F)cc2)c2ccccc21 [Example 92] ) has pIC50 equal to 7.08

Per the records, this molecule ( Cn1c(=O)c(O)c(C(=O)NCCCOc2ccc(-c3ccccc3)cc2)c2ccccc21 [Example 133] ) has pIC50 equal to 8.00

* * *

Known IC50 of a selection of compounds
- TARGET: endothelial lipase (EL) (Homo sapiens, UniProt Q9Y5X9)
- Construct: transformed by RAGE technology (Athersys) to overexpress endogenous EL; endogenous in cells; conditioned medium used as the enzyme source
- Sequence (Q9Y5X9 21-500): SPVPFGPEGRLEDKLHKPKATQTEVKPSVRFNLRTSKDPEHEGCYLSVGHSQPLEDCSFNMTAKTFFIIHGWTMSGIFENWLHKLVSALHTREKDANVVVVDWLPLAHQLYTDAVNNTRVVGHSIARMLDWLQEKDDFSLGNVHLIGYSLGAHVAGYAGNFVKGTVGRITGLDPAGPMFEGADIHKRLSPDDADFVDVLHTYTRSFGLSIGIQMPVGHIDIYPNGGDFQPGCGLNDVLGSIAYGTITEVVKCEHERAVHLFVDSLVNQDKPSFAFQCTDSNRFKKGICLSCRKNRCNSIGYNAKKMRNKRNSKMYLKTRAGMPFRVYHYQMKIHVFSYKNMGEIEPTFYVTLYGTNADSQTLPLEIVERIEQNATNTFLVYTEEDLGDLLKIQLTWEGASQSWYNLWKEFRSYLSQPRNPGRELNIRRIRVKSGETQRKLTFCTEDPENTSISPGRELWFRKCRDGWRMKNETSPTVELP
- RUN_DESCRIPTION: Endothelial lipase (EL) enzymatic assay with fluorescent substrate A10070 in DMPG vesicles
- STATED_CONDITIONS: conditioned media from HT-1080 cells overexpressing endogenous EL; 20 min preincubation at 37° C.; FRET substrate A10070; read-out: HLE_EL_CRC IC50
Report only the number, with the unit nM understood.

Here is how some compounds turned out for IC50.
INSERT INTO measurements (compound, target, endpoint_name, meas_value) VALUES
  ('O=C(NCC1CN(S(=O)(=O)c2ccc(Cl)c(Cl)c2)C1)c1c(O)c(=O)[nH]c2ccc(OC(F)(F)F)cc12 [Example 55]', 'endothelial lipase (EL) (Homo sapiens, UniProt Q9Y5X9)', 'IC50', 25),
  ('COC[C@H](Cc1ccccc1)NC(=O)c1c(O)c(=O)n(C)c2ccccc12 [Example 96]', 'endothelial lipase (EL) (Homo sapiens, UniProt Q9Y5X9)', 'IC50', 8530),
  ('Cn1c(=O)c(O)c(C(=O)NCCCc2ccccc2Cl)c2ccccc21 [Example 27]', 'endothelial lipase (EL) (Homo sapiens, UniProt Q9Y5X9)', 'IC50', 35),
  ('Cn1c(=O)c(O)c(C(=O)NCCCc2ccc(Cl)cc2Cl)c2ccccc21 [Example 2]', 'endothelial lipase (EL) (Homo sapiens, UniProt Q9Y5X9)', 'IC50', 13),
  ('Cn1c(=O)c(O)c(C(=O)NC(Cc2ccccc2)c2ccccc2)c2ccccc21 (centres unmarked) [Example 155]', 'endothelial lipase (EL) (Homo sapiens, UniProt Q9Y5X9)', 'IC50', 3120),
  ('Cn1c(=O)c(O)c(C(=O)NCc2ccccc2N2CCC(CO)CC2)c2ccccc21 [Example 141]', 'endothelial lipase (EL) (Homo sapiens, UniProt Q9Y5X9)', 'IC50', 1700),
  ('O=C(NCCCOc1c(Cl)cccc1Cl)c1c(O)c(=O)[nH]c2ccc(OC(F)(F)F)cc12 [Example 51]', 'endothelial lipase (EL) (Homo sapiens, UniProt Q9Y5X9)', 'IC50', 40),
  ('O=C(NCCCc1c(Cl)cccc1Cl)c1c(O)c(=O)[nH]c2ccc(OC(F)(F)F)cc12 [Example 43]', 'endothelial lipase (EL) (Homo sapiens, UniProt Q9Y5X9)', 'IC50', 70);

Per the records, this compound ( Cn1c(=O)c(O)c(C(=O)NCc2csc(-c3ccccc3)n2)c2ccccc21 [Example 90] ) has IC50 equal to 83

Per the records, this compound ( COc1ccccc1OCCCNC(=O)c1c(O)c(=O)n(C)c2ccccc12 [Example 147] ) has IC50 equal to 49

Per the records, this compound ( Cn1c(=O)c(O)c(C(=O)NCc2cccc(OC(F)(F)F)c2)c2ccccc21 [Example 86] ) has IC50 equal to 37

Per the records, this compound ( O=C(NCCCc1ccc(Cl)cc1Cl)c1c(O)c(=O)[nH]c2ccc(OC(F)(F)F)cc12 [Example 28] ) has IC50 equal to 35

Per the records, this compound ( Cn1c(=O)c(O)c(C(=O)NCc2ccc(C(F)(F)F)cc2)c2ccccc21 [Example 105] ) has IC50 equal to 100

Per the records, this compound ( C[C@@H](NC(=O)c1c(O)c(=O)n(C)c2ccccc12)c1cccc(-c2ccccc2)c1 [Example 64] ) has IC50 equal to 64

Per the records, this compound ( O=C(NCCCOc1ccccc1C(F)(F)F)c1c(O)c(=O)[nH]c2ccc(OC(F)(F)F)cc12 [Example 50] ) has IC50 equal to 12

Per the records, this compound ( Cn1c(=O)c(O)c(C(=O)NCCOc2ccc(Cl)cc2)c2ccccc21 [Example 26] ) has IC50 equal to 91

Per the records, this compound ( Cn1c(=O)c(O)c(C(=O)NCc2nc3ccccc3s2)c2ccccc21 [Example 107] ) has IC50 equal to 11100
